All values here come from patent US7094798B1.

Target: Chk1 enzyme (Homo sapiens)
Sequence (O14757 1-476): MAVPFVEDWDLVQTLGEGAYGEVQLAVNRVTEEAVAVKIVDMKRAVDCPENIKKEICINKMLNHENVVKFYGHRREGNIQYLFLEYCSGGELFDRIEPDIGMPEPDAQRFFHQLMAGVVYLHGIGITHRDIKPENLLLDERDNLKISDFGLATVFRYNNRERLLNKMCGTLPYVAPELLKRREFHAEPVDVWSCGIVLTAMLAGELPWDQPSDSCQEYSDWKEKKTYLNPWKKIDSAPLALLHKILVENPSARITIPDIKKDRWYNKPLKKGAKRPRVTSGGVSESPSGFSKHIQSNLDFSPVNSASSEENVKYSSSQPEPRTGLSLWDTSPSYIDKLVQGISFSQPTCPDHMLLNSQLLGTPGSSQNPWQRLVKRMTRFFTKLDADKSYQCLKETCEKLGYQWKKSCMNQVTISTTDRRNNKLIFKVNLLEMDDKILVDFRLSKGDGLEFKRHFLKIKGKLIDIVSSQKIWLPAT
Experiment: Chk1 enzyme inhibition assay
Conditions: isolated Chk1 enzyme, GST-Cdc25 substrate; read-out: CHK1A IC50
measurementKind: pIC50
Please keep in mind that pIC50 is minus log10 of the molar concentration; only the number is needed.

**Query** Retrieve pIC50 on Chk1 enzyme (Homo sapiens); query COc1ccc2[nH]c3c(c2c1)C1C(=O)NC(=O)C1C(c1ccccc1Cl)C3 (mixture of isomers)
**Result** 6.36
